Known koff of a selection of binders
# Experimental target: T1, mfNPR1-mFc:hBNP complex (monkey; human, UniProt P16860 103-134)
# T1 construct: also called monkey NPR1 complexed to BNP
# Experiment notes: SPR, mAb captured, 25C
Enter the number, and then the unit.

mAb25508 (antibody, human IgG4, V domains shown) VH: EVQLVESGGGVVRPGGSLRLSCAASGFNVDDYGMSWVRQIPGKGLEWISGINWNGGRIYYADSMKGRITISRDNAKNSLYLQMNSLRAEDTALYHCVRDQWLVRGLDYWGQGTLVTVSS VL: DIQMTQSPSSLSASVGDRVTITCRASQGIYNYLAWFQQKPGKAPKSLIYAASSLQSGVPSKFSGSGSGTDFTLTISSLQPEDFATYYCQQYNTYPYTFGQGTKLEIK :: 8.91e-05 s⁻¹

Input line: I would be grateful if you could share the reported koff for mAb22035 (antibody, human IgG4, V domains shown) VH: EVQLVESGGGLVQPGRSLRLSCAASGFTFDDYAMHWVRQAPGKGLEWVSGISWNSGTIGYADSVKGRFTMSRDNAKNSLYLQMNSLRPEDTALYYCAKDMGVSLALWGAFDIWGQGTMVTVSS VL: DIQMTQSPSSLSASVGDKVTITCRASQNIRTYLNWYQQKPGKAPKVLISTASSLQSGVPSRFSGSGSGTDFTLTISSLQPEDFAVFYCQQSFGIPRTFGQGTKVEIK .
Output line: 6.13e-05 s⁻¹
